- assay notes: NCI Yeast Anticancer Drug Screen. Data for the cln2 rad14 strain (AID 165)
- applied conditions: S. cerevisiae cln2 rad14 strain, at 50.0 µM, hits give high values
This is part of a sample that, as a whole, favours compounds with a hit. Of some 79,000 tested, about 15% had one in any assay.
Response key: Y means growth inhibition >= 20%; N means growth inhibition < 20%.

- compound: "C=C1C2C[C@@H]3OC4CC5O[C@]6(CC5OC4C(C)C3OC(=O)CC3CC[C@@H]4OC5C7OC8C[C@](CCC9CC(=C)[C@H](CCC(C[C@H]1C)O2)O9)(OC7C4O3)O[C@@H]85)C[C@@H]1O[C@@]2(CC(C)[C@@H]3OC(CC(=O)CCO)C(O)C[C@@H]3O2)CC(C)[C@@H]1O6 (stereo partly specified)"
  label class: "Y"
- compound: "COc1ccccc1/C=C1\\C(=O)N(C(=O)Cc2ccccc2)N=C1C"
  label class: "N"
- compound: "COC(=O)CCCC(NC(=O)c1ccc([N+](=O)[O-])cc1)C(=O)OC (stereo unspecified)"
  label class: "N"
- compound: "CC(c1ccccc1)C1OCC(CCCCO)O1 (stereo unspecified)"
  label class: "N"
- compound: "CCS(=O)c1ncc2cnccn12 (stereo unspecified)"
  label class: "N"
- compound: "COC(=O)/C=C(/Nc1ccccc1C(=O)O)C(=O)OC"
  label class: "N"
- compound: "COc1ccc2c(c1)[n+](=O)c(C(=O)C/C(=N/OCCCc1ccccc1)C(=O)NC13CC4CC(CC(C4)C1)C3)c(C)n2[O-]"
  label class: "N"
- compound: "O=C(N/N=C/c1ccccc1Cl)c1ccccc1"
  label class: "N"
- compound: "CCCCCCCCCCCCNC(=O)c1ccccc1O"
  label class: "Y"
- compound: "N#CCCCCCCCCC(=O)O"
  label class: "N"
- compound: "FC(F)(F)c1ccc(Cl)c(N=C=S)c1"
  label class: "N"
- compound: "Cc1ccc2nc(Nc3ccc(Cl)cc3)cc(C(O)C3CCCCN3)c2c1 (stereo unspecified)"
  label class: "Y"
- compound: "Nc1nc(N)c2c(n1)CCC(CNc1ccc(C(=O)NC(CCC(=O)O)C(=O)O)cc1)C2 (stereo unspecified)"
  label class: "Y"
- compound: "Cc1ccc(Nc2nc(C)c(C(=O)CC(=O)C(=O)Nc3c(C)cccc3C(C)(C)C)s2)cc1"
  label class: "N"
- compound: "CC[n+]1ccc(C#N)cc1"
  label class: "N"
- compound: "CCOc1c(C)cc(C(C)c2cc3c(cc2OC)OCO3)cc1C (stereo unspecified)"
  label class: "N"
- compound: "CC(=O)CC(=O)Nc1ccc(NC(=O)CC(C)=O)cc1"
  label class: "N"
- compound: "CCOC1(c2ccccc2)CCNCC1"
  label class: "N"
- compound: "COc1cccc2c1C(=N)c1c(O)c3c(c(O)c1C2=O)C[C@@](O)(C(C)=O)C[C@@H]3OC1CC(N)C(O)C(C)O1 (stereo partly specified)"
  label class: "Y"
